- Test system: M21 human melanoma cells
- procedure_text: M21 melanoma cell adhesion assay (αvβ3-dependent adhesion to human fibrinogen-coated plates)
- Type: cell-based
- experimental_conditions: Homo sapiens, M21; read-out: M21 Melanoma Cells IC50
Structures can show the parent of a compound that is named as a salt.
observation_type: log10 IC50 (log10 of the value in nM)
The base-10 logarithm of IC50, taken with IC50 in nM, is what appears here.

Look over these answered cases.
Just so you know, measured log10 IC50 for N=C(N)Nc1cccc(C(=O)NCC(=O)NC(CC(=O)O)c2cnc3ccccc3c2)c1 (stereo not shown) came out at -0.31

Form field log10 IC50, entry Cc1ccc(S(=O)(=O)CCC(CC(=O)O)NC(=O)CNC(=O)c2cccc(NC(=N)N)c2)cc1 (racemic) [Example 67, trifluoroacetate salt] : 0.61

# compound Cc1ccc(C(=O)NCC(=O)NC(CC(=O)O)c2cccnc2)cc1NC(=N)N (racemic) ; its log10 IC50 = 1.04

For Cc1ccc(S(=O)(=O)NCC(CC(=O)O)NC(=O)CNC(=O)c2cccc(NC(=N)N)c2)cc1 (stereo not shown) [Example 65, trifluoroacetate salt] the compound record lists log10 IC50 as 1.14

Reported log10 IC50 ( O=C(O)CC(NC(=O)CNC(=O)c1cccc(NC2=NCCCCC2)c1)c1ccccc1 (racemic) [Example 15, trifluoroacetate salt] ) = 2.31

The compound listed as NC(=O)Nc1cccc(C(=O)NCC(=O)NC(CC(=O)O)c2cccnc2)c1 (stereo not shown) [Example 46, hydrochloride salt] shows log10 IC50 equal to 2.17

# context switch: different compound, same log10 IC50
# compound C#C[C@H](CC(=O)O)NC(=O)CNC(=O)c1cccc(NC2=NCCCCC2)c1 [Example 30, trifluoroacetate salt] ; its log10 IC50 = 2.51

---

Listed below: IC50 values for each entry.
- measured_target: Human vitronectin receptor (αvβ3) (Homo sapiens, UniProt P05106+P06756)
- Construct: Human vitronectin receptor (αvβ3) was purified from human placenta; from tissue; host or cells: human placenta
- procedure_text: Vitronectin adhesion assay (solid phase receptor assay, competition with biotinylated vitronectin)
- Format: binding
- experimental_conditions: read-out: AvB3 IC50
Where a name gives a salt, the structure may show the parent alone.
Give the quantity in nM, number only.

GET /value?item= O=C(O)CCNC(=O)CNC(=O)c1cccc(NC(=O)NCc2ccccc2)c1 &field=IC50 returns 16.6

Reported IC50 ( CCOC(=O)CC(NC(=O)CNC(=O)c1cccc(NC(=O)Nc2ccccc2)c1)c1cccnc1 (stereo not shown) ) = 6400

Form field IC50, entry CS(=O)(=O)c1cccc(C(CC(=O)O)NC(=O)CNC(=O)c2cccc(NC(=N)N)c2)c1 (stereo not shown) : 1.24

Please fill in: IC50 reported for N=C(N)Nc1cccc(C(=O)NCC(=O)NC(CC(=O)O)c2cc(Br)c(O)c(Br)c2)c1 (stereo not shown) [Example 276, trifluoroacetate salt] = 1.25

C#C[C@H](CC(=O)O)NC(=O)CNC(=O)c1cccc(N/C(=N/C#N)NC)c1 has a reported IC50 of 3.09

Consider N=C(N)Nc1cc(C(=O)O)cc(C(=O)NCC(=O)NC(CC(=O)O)c2cc(Cl)cc(Cl)c2)c1 (stereo not shown) [Example 290, trifluoroacetate salt] . Its measured IC50 is 1.62

With those in mind, consider the next compound.
IC50 reading for CNC(=NC(N)=O)Nc1cccc(C(=O)NCC(=O)NC(CC(=O)O)c2cc(Cl)cc(Cl)c2)c1 (racemic) : 58.1
